target: UniProtKB P31652; assay: Uptake inhibition assay ([3H]5-HT) in rat brain synaptosomes; type: biochemical; parameters: As a means to evaluate transporter activity of prolintane analogs in native tissue preparation; from tissue; host or cells: rat brain synaptosomes (whole brain minus caudate and cerebellum); conditions: read-out: [3H]5-HT uptake SERT IC50; rat isoform (r), rat brain synaptosomes, mean ± SD
Sequence (P31652 whole entry, canonical isoform): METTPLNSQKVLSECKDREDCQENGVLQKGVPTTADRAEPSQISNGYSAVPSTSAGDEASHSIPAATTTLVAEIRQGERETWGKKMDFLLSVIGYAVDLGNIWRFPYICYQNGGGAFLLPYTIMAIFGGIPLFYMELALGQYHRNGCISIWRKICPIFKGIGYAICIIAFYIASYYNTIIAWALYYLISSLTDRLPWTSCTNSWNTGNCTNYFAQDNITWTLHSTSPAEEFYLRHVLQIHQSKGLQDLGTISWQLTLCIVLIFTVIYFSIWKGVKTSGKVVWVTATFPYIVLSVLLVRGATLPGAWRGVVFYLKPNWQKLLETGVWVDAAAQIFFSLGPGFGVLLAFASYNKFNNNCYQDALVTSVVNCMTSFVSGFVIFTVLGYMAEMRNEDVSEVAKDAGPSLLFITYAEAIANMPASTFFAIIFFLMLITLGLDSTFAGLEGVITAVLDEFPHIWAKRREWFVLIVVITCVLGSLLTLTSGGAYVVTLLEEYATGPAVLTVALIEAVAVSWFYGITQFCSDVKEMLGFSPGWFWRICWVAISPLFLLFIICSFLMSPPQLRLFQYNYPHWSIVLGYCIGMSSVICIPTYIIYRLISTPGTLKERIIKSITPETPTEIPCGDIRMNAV
measured_parameter: IC50 (nM)
Supply the numeric figure in nM, leaving out any unit text.

Short answer for CCCC(Cc1ccccc1C)N1CCCC1 (stereo not shown) : IC50 was 323

====

target: hSERT (Homo sapiens); construct: expressed in transfected cells; type: cell-based; details: Row 1 (time fraction); drug alone vs drug + monensin (Mon)
measured_parameter: Mean diff, hSERT efflux ± Mon (Šídák's multiple comparisons test)

compound | measured_on | measured
CCCC(Cc1ccc(C)cc1)N1CCCC1 (centres unmarked) | hSERT (Homo sapiens) | -0,002444

Short answer for CCCC(Cc1ccc(F)cc1)N1CCCC1 (centres unmarked) : Mean diff, hSERT efflux ± Mon (Šídák's multiple comparisons test) was -0,0007778

Short answer for CCCC(Cc1cccc(F)c1)N1CCCC1 (centres unmarked) : Mean diff, hSERT efflux ± Mon (Šídák's multiple comparisons test) was 0,003889

Short answer for CCCC(Cc1ccccc1F)N1CCCC1 (centres unmarked) : Mean diff, hSERT efflux ± Mon (Šídák's multiple comparisons test) was -0.05533

Short answer for CCCC(Cc1cccc(C)c1)N1CCCC1 (centres unmarked) : Mean diff, hSERT efflux ± Mon (Šídák's multiple comparisons test) was 0.05456

====

molecular target: hSERT (Homo sapiens, UniProt P31645); construct: expressed in transfected cells; format: cell-based; conditions: Row 4 (time fraction); drug alone vs drug + monensin (Mon)
Sequence (P31645 whole entry): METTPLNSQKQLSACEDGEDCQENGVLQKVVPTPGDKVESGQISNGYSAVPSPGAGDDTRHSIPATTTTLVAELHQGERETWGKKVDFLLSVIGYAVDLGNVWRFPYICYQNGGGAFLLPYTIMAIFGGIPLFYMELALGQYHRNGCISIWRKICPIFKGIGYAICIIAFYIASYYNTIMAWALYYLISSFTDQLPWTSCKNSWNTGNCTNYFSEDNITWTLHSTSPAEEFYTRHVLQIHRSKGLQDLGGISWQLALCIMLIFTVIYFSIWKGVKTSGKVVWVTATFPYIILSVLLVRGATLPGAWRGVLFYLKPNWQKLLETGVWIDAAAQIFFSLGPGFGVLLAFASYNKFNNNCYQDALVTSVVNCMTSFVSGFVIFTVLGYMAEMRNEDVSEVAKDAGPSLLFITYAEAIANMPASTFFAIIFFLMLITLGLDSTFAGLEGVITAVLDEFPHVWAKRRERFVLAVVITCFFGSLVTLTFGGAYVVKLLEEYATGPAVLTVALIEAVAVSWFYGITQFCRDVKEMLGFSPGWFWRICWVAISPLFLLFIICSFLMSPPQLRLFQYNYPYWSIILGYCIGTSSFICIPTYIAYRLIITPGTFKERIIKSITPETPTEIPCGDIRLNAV
measured_parameter: Mean diff, hSERT efflux ± Mon (Šídák's multiple comparisons test)
Response field accepts a number only; no unit should be typed.

molecule | measured
CCCC(Cc1ccccc1F)N1CCCC1 (centres unmarked) | -0.05989

Record CCCC(Cc1cccc(C)c1)N1CCCC1 (centres unmarked) / hSERT (Homo sapiens, UniProt P31645), Mean diff, hSERT efflux ± Mon (Šídák's multiple comparisons test) recorded as 0.07733

====

molecular target: hSERT (Homo sapiens); construct: expressed in transfected cells; format: cell-based; conditions: Row 5 (time fraction); drug alone vs drug + monensin (Mon)
measured_parameter: Mean diff, hSERT efflux ± Mon (Šídák's multiple comparisons test)
Response field accepts a number only; no unit should be typed.

compound | measured
CCCC(Cc1ccccc1F)N1CCCC1 (centres unmarked) [2-Fluoroprolintane] | -0.128

Pending compound:
Short answer for CCCC(Cc1cccc(C)c1)N1CCCC1 (centres unmarked) [3-Methylprolintane] : Mean diff, hSERT efflux ± Mon (Šídák's multiple comparisons test) was -0.1496

====

molecular target: hSERT (Homo sapiens, UniProt P31645); construct: expressed in transfected cells; assay type: cell-based; conditions: Row 6 (time fraction); drug alone vs drug + monensin (Mon)
measured_parameter: Mean diff, hSERT efflux ± Mon (Šídák's multiple comparisons test)
Response field accepts a number only; no unit should be typed.

compound | measured
CCCC(Cc1ccccc1F)N1CCCC1 (centres unmarked) [2-Fluoroprolintane] | -0.2267

Short answer for CCCC(Cc1cccc(C)c1)N1CCCC1 (centres unmarked) [3-Methylprolintane] : Mean diff, hSERT efflux ± Mon (Šídák's multiple comparisons test) was -0.229
